// provenance: PubChem BioAssay AID1159580

Assay: chemical genetic growth profiling, strain panel (AID 1159580);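 further: tested at 20 µM; growth read once vehicle control cultures reached saturation at 30 °C; 1 = growth at the plate median or of vehicle wells; lower values mean less growth of the strain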
Settings: S. cerevisiae deletion strains, growth OD, locus YJR066W, strain TOR1
Out of some 5,500 compounds screened, about 2,000 (36%) were called active. About 18% were inconclusive and are not listed. No stated cut-off is given here; in the data, active means normalized growth mostly below about 0.91 (no sharp cut-off); inconclusive means no clear call, values can overlap the other calls; inactive means mostly above about 0.92. The list shows a part of the results.
Would you mind answering with one of these outcomes? 1 = active, -1 = inactive

Example cases with answers are listed next.
Recorded call for CO[C@H]1CC(O[C@@H]2/C(C)=C/C[C@@H]3C[C@@H](C[C@]4(CC[C@H](C)[C@@H](C5CCCCC5)O4)O3)OC(=O)[C@@H]3C=C(C)/C(=N\O)[C@H]4OC/C(=C\C=C\[C@@H]2C)[C@]43O)O[C@@H](C)C1O (stereo not given in full) ?
1

Recorded call for CCN(CC)CCOC(=O)C1(C2CCCCC2)CCCCC1 ?
-1

Recorded call for O=S(=O)(Oc1ccc(-c2csnn2)cc1)c1ccccc1Cl ?
-1

Recorded call for CC(=O)N[C@@H](Cc1c[nH]c2ccccc12)C(N)=O ?
-1

Recorded call for CCN(CC)CCOC(=O)C(c1ccccc1)C1CCCCC1 (stereo not given) ?
-1

Recorded call for O=[N+]([O-])c1cccc(C2CC(c3ccccc3)=Nc3ccccc3S2)c1 (stereo not given) ?
-1

Recorded call for Cc1cc(/C(N)=N\OC(=O)C(C)(C)C)cc(/C(N)=N\OC(=O)C(C)(C)C)c1 ?
-1

Recorded call for CCC(C)[C@H]1O[C@]2(CC[C@@H]1C)C[C@@H]1C[C@@H](C/C=C(\C)[C@@H](OC3C[C@H](OC)C(O[C@H]4C[C@H](OC)[C@@H](O)[C@H](C)O4)[C@H](C)O3)[C@@H](C)/C=C/C=C3\CO[C@@H]4[C@H](O)C(C)=C[C@@H](C(=O)O1)[C@]34O)O2 (stereo not given in full) ?
-1

Further cases:
Recorded call for C=C1c2cccc(O)c2C(O)=C2C(=O)[C@]3(O)C(O)=C(C(N)=O)C(=O)[C@@H](N(C)C)[C@@H]3[C@@H](O)[C@H]12 ?
-1

Recorded call for CC(CCC(=O)O)[C@H]1CCC2C3CC[C@@H]4CC(=O)CC[C@]4(C)C3C=C[C@@]21C (stereo not given in full) ?
-1

Recorded call for C[C@H](CCC(=O)O)[C@H]1CCC2C3C(=O)CC4CC(=O)CC[C@]4(C)C3CC(=O)[C@@]21C (stereo not given in full) ?
-1

Recorded call for NCCCNCCCCNCCCN ?
-1

Recorded call for CC(C)CCCC(C)C1CCC2C3=CC[C@H]4C[C@@H](O)CC[C@]4(C)C3CC[C@@]21C (stereo not given in full) ?
-1

Recorded call for CCN(CC)CCOCCOC(=O)C1(c2ccccc2)CCCC1 ?
-1

Recorded call for CSc1sc(C(=O)Sc2ccccc2)cc1S(=O)(=O)C(C)C ?
-1

Recorded call for CC(C)CCCC(C)[C@H]1CCC2C3CC=C4C[C@@H](O)CC[C@]4(C)C3CC[C@@]21C (stereo not given in full) ?
-1

Recorded call for COC(=O)C1=C(Nc2ccccc2NS(=O)(=O)c2ccc(C(F)(F)F)cc2Cl)CSC1 ?
-1

Recorded call for CC1(C)CC2C1CC[C@]1(CBr)CCC3C(CC(=O)O)C(=O)O[C@@]32C1 (stereo not given in full) ?
-1

Recorded call for CC(C)c1ccc2c(c1)CCC1[C@](C)(CN)CCC[C@]21C (stereo not given in full) ?
-1

Recorded call for CC1(C)CC2C1CC[C@]1(C)CCC3C(C(=O)O)CC(=O)O[C@@]32C1 (stereo not given in full) ?
-1

Recorded call for OC[C@H]1O[C@@](CO)(O[C@@H]2O[C@H](CO)[C@@H](O)[C@H](O)[C@H]2O)[C@@H](O[C@@H]2O[C@H](CO)[C@@H](O)[C@H](O)[C@H]2O)[C@@H]1O ?
-1
